System: Enterococcus sp.
Assay: in vitro antibacterial evaluation, MIC by broth dilution
Assay type: cell-based
Conditions: broth dilution, 18 hours at 35° C.
Description: Methods for in vitro Antibacterial Evaluation (Table 1) […]
Exam item: assign Y to entries whose MIC Enterococcus faecalis (GC 2691) is below 4 µg/mL and N to entries at or above 4 µg/mL. Note that a value of exactly 4 µg/mL receives N.

CC(c1ccccc1)C1NC(=O)CNC(=O)C(CO)NC(=O)C(C(O)C2CN(Cc3ccc(-c4ccccc4)cc3)C(=N)N2C2OC(CO)C(O)C(O)C2O)NC(=O)C(C(O)C2CNC(=N)N2)NC(=O)C(Cc2ccc(OC3OC(CO)C(OC4OC(CO)C(O)C(O)C4O)C(O)C3O)cc2)NC1=O (centres unmarked) [Example 66a]	N
CC(c1ccccc1)C1NC(=O)CNC(=O)C(CO)NC(=O)C(C(O)C2CNC(=N)N2C2OC(CO)C(O)C(O)C2O)NC(=O)C(C(O)C2CNC(=N)N2)NC(=O)C(Cc2ccc(OC3OC(CO)C(OC4OC5COC6(OC5C(O)C4O)C(C)CCCC6C)C(O)C3O)cc2)NC1=O (centres unmarked) [Example 206]	Y
CC(c1ccccc1)C1NC(=O)CNC(=O)C(CO)NC(=O)C(CC2CNC(=N)N2C2OC(CO)C(O)C(O)C2O)NC(=O)C(CC2CNC(=N)N2)NC(=O)C(Cc2ccc(OC3OC(CO)C(OC4OC5COC6(OC5C(O)C4O)C4CC5CC(C4)CC6C5)C(O)C3O)cc2)NC1=O (centres unmarked) [Example 219]	N

Ask | Decide: MIC Enterococcus faecalis (GC 2691) of CC(c1ccccc1)C1NC(=O)CNC(=O)C(CO)NC(=O)C(C(O)C2CNC(=N)N2C2OC(CO)C(O)C(O)C2O)NC(=O)C(C(O)C2CNC(=N)N2)NC(=O)C(Cc2ccc(OC3OC(CO)C(OC4OC(COCC=Cc5ccccc5)C(O)C(O)C4O)C(O)C3O)cc2)NC1=O (centres unmarked) [Example 242] strictly below 4 µg/mL?
Reply | N

Ask | For CC(c1ccccc1)C1NC(=O)CNC(=O)C(CO)NC(=O)C(CC2CNC(=N)N2C2OC(CO)C(O)C(O)C2O)NC(=O)C(CC2CNC(=N)N2)NC(=O)C(Cc2ccc(OC3OC(CO)C(OC4OC5COC(c6ccc(OCc7ccccc7)cc6)OC5C(O)C4O)C(O)C3O)cc2)NC1=O (centres unmarked) [Example 191] , is the recorded MIC Enterococcus faecalis (GC 2691) below the cut-off of 4 µg/mL?
Reply | N

Ask | Lab log: compare recorded MIC Enterococcus faecalis (GC 2691) with 4 µg/mL; is it strictly lower for CC(c1ccccc1)C1NC(=O)CNC(=O)C(CO)NC(=O)C(C(O)C2CNC(=N)N2C2OC(CO)C(O)C(O)C2O)NC(=O)C(C(O)C2CNC(=N)N2)NC(=O)C(Cc2ccc(OC3OC(CO)C(OC4OC(CO)C(OCC=C(c5ccccc5)c5ccccc5)C(O)C4O)C(O)C3O)cc2)NC1=O (centres unmarked) [Example 241a] ?
Reply | Y

###

Kindly state MIC Enterococcus faecalis (GC 4552) for each of the entries shown.
test system: Enterococcus sp.; assay: in vitro antibacterial evaluation, MIC by broth dilution; type: cell-based; details: strain GC 4552; broth dilution, 18 hours at 35° C.
Give bare numbers, in µg/mL.

See these solved cases before continuing.
CC(c1ccccc1)C1NC(=O)CNC(=O)C(CO)NC(=O)C(C(O)C2CNC(=N)N2C2OC(CO)C(O)C(O)C2O)NC(=O)C(C(O)C2CNC(=N)N2)NC(=O)C(Cc2ccc3oc(SCC(=O)c4ccc(Cl)cc4)nc3c2)NC1=O (stereo not shown)	2
COc1cc(C2OCC3OC(OC4C(CO)OC(Oc5ccc(CC6NC(=O)C(C(C)c7ccccc7)NC(=O)CNC(=O)C(CO)NC(=O)C(C(O)C7CNC(=N)N7C7OC(CO)C(O)C(O)C7O)NC(=O)C(C(O)C7CNC(=N)N7)NC6=O)cc5)C(O)C4O)C(O)C(O)C3O2)ccc1[N+](=O)[O-] (stereo not shown)	8
CSc1ccc(C2OCC3OC(OC4C(CO)OC(Oc5ccc(CC6NC(=O)C(C(C)c7ccccc7)NC(=O)CNC(=O)C(CO)NC(=O)C(C(O)C7CNC(=N)N7C7OC(CO)C(O)C(O)C7O)NC(=O)C(C(O)C7CNC(=N)N7)NC6=O)cc5)C(O)C4O)C(O)C(O)C3O2)cc1[N+](=O)[O-] (stereo not shown)	2
CC(c1ccccc1)C1NC(=O)CNC(=O)C(CO)NC(=O)C(C(O)C2CNC(=N)N2C2OC(CO)C(O)C(O)C2O)NC(=O)C(C(O)C2CNC(=N)N2)NC(=O)C(Cc2ccc3oc(-c4ccc(Br)cc4)nc3c2)NC1=O (stereo not shown)	64
CC(c1ccccc1)C1NC(=O)CNC(=O)C(CO)NC(=O)C(C(O)C2CNC(=N)N2C2OC(CO)C(O)C(O)C2O)NC(=O)C(C(O)C2CNC(=N)N2)NC(=O)C(Cc2ccc3oc(C=C(c4ccccc4)c4ccccc4)nc3c2)NC1=O (stereo not shown)	16
CC(c1ccccc1)C1NC(=O)CNC(=O)C(CO)NC(=O)C(C(O)C2CNC(=N)N2C2OC(CO)C(O)C(O)C2O)NC(=O)C(C(O)C2CNC(=N)N2)NC(=O)C(Cc2ccc(OC3OC(CO)C(OC4OC5COC(c6cccc(-c7ccccc7)c6)OC5C(O)C4O)C(O)C3O)cc2)NC1=O (stereo not shown)	2

Ask | Could you share which MIC Enterococcus faecalis (GC 4552) value was measured for CC(c1ccccc1)C1NC(=O)CNC(=O)C(CO)NC(=O)C(C(O)C2CNC(=N)N2C2OC(CO)C(O)C(O)C2O)NC(=O)C(C(O)C2CNC(=N)N2)NC(=O)C(Cc2ccc(OC3OC(CO)C(OC4OC5COC(c6ccc(-c7ccsc7)cc6)OC5C(O)C4O)C(O)C3O)cc2)NC1=O (stereo not shown) ?
Reply | 8

###

system: Enterococcus sp.; test: in vitro antibacterial evaluation, MIC by broth dilution; assay type: cell-based; conditions: broth dilution, 18 hours at 35° C.
measured.quantity: MIC Enterococcus faecalis (GC 4554) (µg/mL)
One number for each entry, in µg/mL.

For every item below, please supply its MIC Enterococcus faecalis (GC 4554).
1. CCCCCCN=C1NCC(C(O)C2NC(=O)C(C(O)C3CNC(=N)N3)NC(=O)C(Cc3ccc(OC4OC(CO)C(OC5OC6COC7(OC6C(O)C5O)C5CC6CC(C5)CC7C6)C(O)C4O)cc3)NC(=O)C(C(C)c3ccccc3)NC(=O)CNC(=O)C(CO)NC2=O)N1C1OC(CO)C(O)C(O)C1O (stereo not shown)
2. CC(c1ccccc1)C1NC(=O)CNC(=O)C(CO)NC(=O)C(C(O)C2CNC(=N)N2C2OC(CO)C(O)C(O)C2O)NC(=O)C(C(O)C2CNC(=N)N2)NC(=O)C(Cc2ccc(OC3OC(CO)C(OC4OC5COC6(OC5C(O)C4O)C4CCCC6CCC4)C(O)C3O)cc2)NC1=O (stereo not shown)
3. COc1ccc(COCC2OC(OC3C(CO)OC(Oc4ccc(CC5NC(=O)C(C(C)c6ccccc6)NC(=O)CNC(=O)C(CO)NC(=O)C(C(O)C6CNC(=N)N6C6OC(CO)C(O)C(O)C6O)NC(=O)C(C(O)C6CNC(=N)N6)NC5=O)cc4)C(O)C3O)C(O)C(O)C2O)cc1 (stereo not shown)

Reply |
1. 16
2. 8
3. 32

###

test system: Staphylococcus sp.; experiment: in vitro antibacterial evaluation, MIC by broth dilution; assay type: cell-based; conditions: broth dilution, 18 hours at 35° C.; strain GC 4544
measured.quantity: MIC Staphylococcus aureus (GC 4544) (µg/mL)
Give bare numbers, in µg/mL.

Ask | Which MIC Staphylococcus aureus (GC 4544) is listed for CC(c1ccccc1)C1NC(=O)CNC(=O)C(CO)NC(=O)C(C(O)C2CNC(=N)N2C2OC(CO)C(O)C(O)C2O)NC(=O)C(C(O)C2CNC(=N)N2)NC(=O)C(Cc2ccc(OC3OC(CO)C(OC4OC(CO)C(O)C5OC(c6ccc(-c7ccsc7)cc6)OC45)C(O)C3O)cc2)NC1=O (centres unmarked) [Example 164a] ?
Reply | 8

###

tested on: Enterococcus sp.; assay: in vitro antibacterial evaluation, MIC by broth dilution; assay type: cell-based; details: broth dilution, 18 hours at 35° C.; strain GC 2242
Numbered stars: 1 amine (or outer) side, 2 acyl side, 3 side chain; on linkers, the order of the positions; unused ones are H or OH. Square brackets hold non-standard residues; d marks the D form. Peptide text beside a SMILES is read from it. * marks the point of attachment. ξ: configuration not given here. X1 = N=C1NCC(C(O)C(N[*:1])C(=O)[*:2])N1C1OC(CO)C(O)C(O)C1O; ξEnduracididine(βξ-OH,4'ξ) = N=C1NCC(C(O)C(N)C(=O)O)N1; X2 = OCC1OC(OC2C(CO)OC(*)C(O)C2O)C(O)C(O)C1O
Please provide measured MIC Enterococcus faecalis (GC 2242) for the entries that follow.

N=C1NCC(C(O)C2NC(=O)C(Cc3ccc(OC4OC(CO)C(OC5OC6COC7(OC6C(O)C5O)C5CC6CC(C5)CC7C6)C(O)C4O)cc3)NC(=O)C(CC3CCCCC3)NC(=O)CNC(=O)C(CO)NC(=O)C(C(O)C3CNC(=N)N3C3OC(CO)C(O)C(O)C3O)NC2=O)N1 (stereo not shown) [Example 106]	0.5 to 2 µg/mL

Hey, quick one: what's MIC Enterococcus faecalis (GC 2242) for each of these?
1. CC(c1ccccc1)C1NC(=O)CNC(=O)C(CO)NC(=O)C(C(O)C2CNC(=N)N2C2OC(CO)C(O)C(O)C2O)NC(=O)C(C(O)C2CNC(=N)N2)NC(=O)C(Cc2ccc(OC3OC(CO)C(OC4OC5COC(C6CC=CCC6)OC5C(O)C4O)C(O)C3O)cc2)NC1=O (stereo not shown) [Example 115]
2. N=C1NCC(C(O)C2NC(=O)C(Cc3ccc(OC4OC(CO)C(OC5OC(CO)C(O)C(O)C5O)C(O)C4O)cc3)NC(=O)C(Cc3ccccc3)NC(=O)CNC(=O)C(CO)NC(=O)C(C(O)C3CNC(=N)N3)NC2=O)N1 (stereo not drawn) [Example 296] (cyclo(GFY(X2)[ξEnduracididine(βξ-OH,4'ξ)][ξEnduracididine(βξ-OH,4'ξ)]S); configuration not given here)
3. CC(c1ccccc1)C1NC(=O)CNC(=O)C(CO)NC(=O)C(C(O)C2CNC(=N)N2C2OC(CO)C(O)C(O)C2O)NC(=O)C(C(O)C2CNC(=N)N2)NC(=O)C(Cc2ccc(OC3OC(CO)C(OC4OC5COC(Cc6ccccc6)OC5C(O)C4O)C(O)C3O)cc2)NC1=O (stereo not shown) [Example 102]
4. CC(c1ccccc1)C1NC(=O)CNC(=O)C(CO)NC(=O)C(C(O)C2CN(c3nc4ccccc4o3)C(=N)N2C2OC(CO)C(O)C(O)C2O)NC(=O)C(C(O)C2CNC(=Nc3nc4ccccc4o3)N2)NC(=O)C(Cc2ccc(OC3OC(CO)C(OC4OC(CO)C(O)C(O)C4O)C(O)C3O)cc2)NC1=O (stereo not shown) [Example 93]
5. CC(c1ccccc1)C1NC(=O)CNC(=O)C(CO)NC(=O)C(C(O)C2CN(Cc3ccccc3-c3ccccc3)C(=N)N2C2OC(CO)C(O)C(O)C2O)NC(=O)C(C(O)C2CNC(=N)N2)NC(=O)C(Cc2ccc(OC3OC(CO)C(OC4OC(CO)C(O)C(O)C4O)C(O)C3O)cc2)NC1=O (stereo not shown) [Example 65]
6. N=C1NCC(C(O)C2NC(=O)C(Cc3ccc(O)cc3)NC(=O)C(Cc3ccccc3)NC(=O)CNC(=O)C(CO)NC(=O)C(C(O)C3CNC(=N)N3C3OC(CO)C(O)C(O)C3O)NC2=O)N1 (stereo not drawn) [Example 279a] (cyclo(GFY[ξEnduracididine(βξ-OH,4'ξ)][X1]S); configuration not given here)

Reply |
["2 µg/mL", ">128 µg/mL", "2 to 4 µg/mL", ">128 µg/mL", ">128 µg/mL", ">64 µg/mL"]
